target: human EphA4 extracellular domain-SEAP-His protein (human); assay: ELISA
Sequence (chain, as listed by the source limits assumed): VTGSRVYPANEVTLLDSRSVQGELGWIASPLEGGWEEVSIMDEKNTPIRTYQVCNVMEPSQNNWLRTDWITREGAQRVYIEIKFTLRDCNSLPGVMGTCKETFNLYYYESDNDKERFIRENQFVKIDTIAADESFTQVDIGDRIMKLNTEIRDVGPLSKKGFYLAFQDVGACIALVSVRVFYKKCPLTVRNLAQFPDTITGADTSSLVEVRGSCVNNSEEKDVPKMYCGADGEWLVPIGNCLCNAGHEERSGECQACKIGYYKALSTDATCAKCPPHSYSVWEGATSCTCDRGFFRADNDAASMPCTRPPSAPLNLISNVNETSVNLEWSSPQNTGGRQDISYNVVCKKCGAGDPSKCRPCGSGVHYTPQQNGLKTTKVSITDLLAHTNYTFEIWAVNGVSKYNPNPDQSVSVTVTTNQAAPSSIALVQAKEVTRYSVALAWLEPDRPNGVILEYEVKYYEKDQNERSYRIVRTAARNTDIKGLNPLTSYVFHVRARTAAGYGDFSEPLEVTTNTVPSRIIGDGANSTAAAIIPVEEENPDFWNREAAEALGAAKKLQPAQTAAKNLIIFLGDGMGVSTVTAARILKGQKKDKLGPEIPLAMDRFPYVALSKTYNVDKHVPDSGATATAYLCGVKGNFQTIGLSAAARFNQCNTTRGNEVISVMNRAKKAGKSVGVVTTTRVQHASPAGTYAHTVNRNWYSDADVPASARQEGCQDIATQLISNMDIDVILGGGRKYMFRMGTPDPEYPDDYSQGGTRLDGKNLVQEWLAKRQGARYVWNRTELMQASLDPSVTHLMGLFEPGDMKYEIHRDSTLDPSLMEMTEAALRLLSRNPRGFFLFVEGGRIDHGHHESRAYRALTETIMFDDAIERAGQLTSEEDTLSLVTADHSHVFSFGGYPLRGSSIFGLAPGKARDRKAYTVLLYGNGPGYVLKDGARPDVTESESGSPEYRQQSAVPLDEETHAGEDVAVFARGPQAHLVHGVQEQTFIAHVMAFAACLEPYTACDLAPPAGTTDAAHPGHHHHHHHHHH
READOUT LABEL: absorbance

// below: answered binders
binder="KPEP11_12 (antibody, V domains shown, Rabbit IgG; also called anti-human EphA4 rabbit monoclonal antibody KPEP11_12) VH: QSLEESGGRLVTPGTPLTLTCTVSGFSLSSYHMSWVRQAPGKGLEWIGIIYRSGNTYYANWAKGRFTISKTSTTVDLKITSPTTEDTATYFCARESSTFYGMDLWGPGTLVTVSS VL: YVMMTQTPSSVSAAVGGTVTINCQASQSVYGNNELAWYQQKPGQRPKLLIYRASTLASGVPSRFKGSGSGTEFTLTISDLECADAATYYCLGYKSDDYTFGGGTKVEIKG" reported=1.22
binder="KPEP11_09 (antibody, V domains shown, Rabbit IgG; also called anti-human EphA4 rabbit monoclonal antibody KPEP11_09) VH: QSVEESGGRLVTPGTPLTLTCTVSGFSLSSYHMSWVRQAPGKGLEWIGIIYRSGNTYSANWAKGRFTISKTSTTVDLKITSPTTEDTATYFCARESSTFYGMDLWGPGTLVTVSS VL: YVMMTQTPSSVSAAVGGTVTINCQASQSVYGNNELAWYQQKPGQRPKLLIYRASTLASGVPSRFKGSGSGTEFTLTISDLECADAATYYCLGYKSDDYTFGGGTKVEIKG" reported=1.14
binder="KPEP11_02 (antibody, V domains shown, Rabbit IgG; also called anti-human EphA4 rabbit monoclonal antibody KPEP11_02) VH: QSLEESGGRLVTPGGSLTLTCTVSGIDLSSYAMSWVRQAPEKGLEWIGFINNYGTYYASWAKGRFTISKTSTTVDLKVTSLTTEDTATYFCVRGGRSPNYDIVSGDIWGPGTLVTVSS VL: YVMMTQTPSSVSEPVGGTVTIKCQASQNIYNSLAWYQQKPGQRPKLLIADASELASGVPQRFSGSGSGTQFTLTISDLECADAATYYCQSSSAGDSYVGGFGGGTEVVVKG" reported=1.25
binder="KPEP11_20 (antibody, V domains shown, Rabbit IgG; also called anti-human EphA4 rabbit monoclonal antibody KPEP11_20) VH: QSLEESGGRLVTPGTPLTLTCTVSGFSLNNYYMNWVRQAPGKGLEWIGIIYPDIDTTDYASWVKGRFTISKTSTTVDLKITSPTTEDTATYFCARSDIDYYTTRLDLWGQGTLVTISS VL: AQVLTQTPSPVSAAVGGTVSINCQSSPSVYNNNWLSWFQQKPGQPPKLLIYGASTLASGVPSRFKGSGSGTQFTLTISDVQCDDAATYYCAGGYDSNSDTAFGGGTELEILG" reported=1.16
binder="KPEP11_04 (antibody, V domains shown, Rabbit IgG/kappa; Used HRP-labeled as detection antibody in the sandwich ELISAs; also called anti-human EphA4 rabbit monoclonal antibody KPEP11_04; HRP-labeled KPEP11_04) VH: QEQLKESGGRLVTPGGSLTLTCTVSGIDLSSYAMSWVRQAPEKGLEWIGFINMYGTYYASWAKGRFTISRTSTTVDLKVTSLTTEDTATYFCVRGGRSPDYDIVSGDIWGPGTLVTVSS VL: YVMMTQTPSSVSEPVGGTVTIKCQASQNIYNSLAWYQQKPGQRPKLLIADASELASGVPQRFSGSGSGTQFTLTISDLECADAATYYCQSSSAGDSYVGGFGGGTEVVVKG" reported=1.26

Q: State the recorded absorbance for this entry: KPEP11_18 (antibody, V domains shown, Rabbit IgG/kappa; Used coated or HRP-labeled in the sandwich ELISAs; also called anti-human EphA4 rabbit monoclonal antibody KPEP11_18; HRP-labeled KPEP11_18) VH: QSLEESGGRLVTPGTPLTLTCTISGFSLSSFYINWVRQAPGRGLEWIGIIYPDIDATDYASWVKGRFTISKTSTTVDLKITSPTTEDTATYFCARSDVDYYTTRLDLWGQGTLVTVSS VL: DPMMTQTASPVSAAVGGTVSISCQSNKSVYSNWLSWFQQKPGQPPKLLIYGASTLASGVPSRFKGSGSGTQFTLTVSDVQCDDAATYFCLGGYRDNSDNAFGGGTEVVVKG
A: 1.23
